Every entry's value here was drawn from ChEMBL document CHEMBL5518246.

- run-description: Metabolic stability in rat liver microsomes assessed as unbound intrinsic clearance
- Assay type: ADME, Microsome
measurement-kind: CL free

Record summary for `C[C@H](NC(=O)[C@]1(NC(=O)c2cc(Cl)c(Cl)[nH]2)CO[C@H](c2ccccc2)C1)c1ncc2c(n1)CN(C1CCN(C)CC1)C2` : reported CL free = < 76.7 mL/min/kg

Record summary for `C[C@H](NC(=O)[C@]1(NC(=O)c2cc(Cl)c[nH]2)CO[C@H](c2ccccc2)C1)c1ncc2c(n1)CN(C1CCN(C)CC1)C2` : reported CL free = < 60 mL/min/kg

Record summary for `C[C@H](NC(=O)[C@]1(NC(=O)c2cc(Cl)c(Cl)[nH]2)CO[C@H](c2ccccc2)C1)c1ncc2c(n1)COC2` : reported CL free = 1080 mL/min/kg

Record summary for `COCc1ccc([C@@H]2C[C@](NC(=O)c3cc(Cl)c(Cl)[nH]3)(C(=O)N[C@@H](C)c3ncc4c(n3)CN(C3CCN(C)CC3)C4)CO2)cc1` : reported CL free = < 53.3 mL/min/kg

====

- run-description: Drug uptake in IL17A-induced CXCL1 secretion in C57BL/6 mouse at 10 mg/kg, iv pretreated 1 hr before IL17A challenge measured after 2 hrs
- Type: ADME, organism-based
- test-settings: in vivo, read-out: Drug uptake
measurement-kind: concentration at 1 h (ng/mL)
Your answer should be a plain number; it is taken to be in ng/mL.

Record summary for `C[C@H](NC(=O)[C@]1(NC(=O)c2cc(Cl)c(Cl)[nH]2)CO[C@H](c2ccccc2)C1)c1ncc2c(n1)CN(C1CCN(C)CC1)C2` : reported concentration at 1 h = 108

Record summary for `C[C@H](NC(=O)[C@]1(NC(=O)c2cc(Cl)c[nH]2)CO[C@H](c2ccccc2)C1)c1ncc2c(n1)CN(C1CCN(C)CC1)C2` : reported concentration at 1 h = 68

Record summary for `C[C@H](NC(=O)[C@]1(NC(=O)c2cc(Cl)c(Cl)[nH]2)CO[C@H](c2ccc(F)cc2)C1)c1ncc2c(n1)CN(C1CCN(C)CC1)C2` : reported concentration at 1 h = 139

Record summary for `COCc1ccc([C@@H]2C[C@](NC(=O)c3cc(Cl)c(Cl)[nH]3)(C(=O)N[C@@H](C)c3ncc4c(n3)CN(C3CCN(C)CC3)C4)CO2)cc1` : reported concentration at 1 h = 85

Record summary for `C[C@H](NC(=O)[C@]1(NC(=O)c2cc(Cl)c(Cl)[nH]2)CO[C@H](c2ccccc2)C1)c1ncc2c(n1)COC2` : reported concentration at 1 h = 190

====

Assignment: determine reported solubility thermodynamic at 48 h for the given compounds.
- run-description: Thermodynamic solubility of the compound at pH 7.4 measured after 48 hrs by UHPLC analysis
- Format: physicochemical
- test-settings: buffer, read-out: Therm_solubility
Your answer should be a plain number; it is taken to be in µM.

Record summary for `C[C@H](NC(=O)[C@]1(NC(=O)c2cc(Cl)c(Cl)[nH]2)CO[C@H](c2ccccc2)C1)c1ncc2c(n1)CN(C)C2` : reported solubility thermodynamic at 48 h = 190

Record summary for `C[C@H](NC(=O)[C@H](CCc1ccccc1)NC(=O)c1cc(Cl)c(Cl)[nH]1)c1ncccn1` : reported solubility thermodynamic at 48 h = 1.7

Record summary for `O=C(N[C@@H](CCc1ccccc1)C(=O)NCc1ncc(C2CCOCC2)cn1)c1cc(Cl)c(Cl)[nH]1` : reported solubility thermodynamic at 48 h = 2.5

Record summary for `C[C@H](NC(=O)[C@]1(NC(=O)c2cc(Cl)c(Cl)[nH]2)CO[C@H](c2ccccc2)C1)c1cc2c(nn1)COC2` : reported solubility thermodynamic at 48 h = 31

Record summary for `C[C@H](NC(=O)[C@]1(NC(=O)c2cc(Cl)c(Cl)[nH]2)CO[C@H](c2ccccc2)C1)c1ncc2c(n1)CN(CC#N)C2` : reported solubility thermodynamic at 48 h = 61

Record summary for `C[C@H](NC(=O)[C@]1(NC(=O)c2cc(Cl)c(Cl)[nH]2)CO[C@H](c2ccccc2)C1)c1ncc2c(n1)CNC2` : reported solubility thermodynamic at 48 h = 719

Record summary for `O=C(N[C@@H](CCc1ccccc1)C(=O)NCc1ncc2c(n1)CCC2)c1cc(Cl)c(Cl)[nH]1` : reported solubility thermodynamic at 48 h = 27

Record summary for `O=C(N[C@@H](CCc1ccccc1)C(=O)NCc1ncccn1)c1cc(Cl)c(Cl)[nH]1` : reported solubility thermodynamic at 48 h = 25

Record summary for `COc1cccc([C@@H]2C[C@](NC(=O)c3cc(Cl)c(Cl)[nH]3)(C(=O)N[C@@H](C)c3ncc4c(n3)CN(C3CCN(C)CC3)C4)CO2)c1` : reported solubility thermodynamic at 48 h = 532

Record summary for `COCc1cnc([C@H](C)NC(=O)[C@]2(NC(=O)c3cc(Cl)c(Cl)[nH]3)CO[C@H](c3ccccc3)C2)nc1` : reported solubility thermodynamic at 48 h = 0.82

Record summary for `C[C@H](NC(=O)[C@]1(NC(=O)c2cc(Cl)c(Cl)[nH]2)CO[C@H](c2ccc(F)cc2)C1)c1ncc2c(n1)CN(C1CCN(C)CC1)C2` : reported solubility thermodynamic at 48 h = 510

Record summary for `COCc1cccc([C@@H]2C[C@](NC(=O)c3cc(Cl)c(Cl)[nH]3)(C(=O)N[C@@H](C)c3ncc4c(n3)CN(C3CCN(C)CC3)C4)CO2)c1` : reported solubility thermodynamic at 48 h = 660

Record summary for `C[C@H](NC(=O)[C@]1(NC(=O)c2cc(Cl)c(Cl)[nH]2)CO[C@H](c2ccccc2)C1)c1ncc2c(n1)COC2` : reported solubility thermodynamic at 48 h = 17

Record summary for `O=C(N[C@@H](CCc1ccccc1)C(=O)NCc1ccccc1)c1cc(Cl)c(Cl)[nH]1` : reported solubility thermodynamic at 48 h = 145
